Please respond with reported RSV Neutralization - IC50 for every item in the list.
- Target desc: fusion glycoprotein of the RSV used in the neutralization assay of Example 1 (respiratory syncytial virus (strain not stated))
- Procedure summary: cell-based or functional assay
Answers are plain numbers, in ng/mL.

Batch: RSV Neutralization - IC50 for all items listed.
1. MPK201 (antibody, V domains shown) VH: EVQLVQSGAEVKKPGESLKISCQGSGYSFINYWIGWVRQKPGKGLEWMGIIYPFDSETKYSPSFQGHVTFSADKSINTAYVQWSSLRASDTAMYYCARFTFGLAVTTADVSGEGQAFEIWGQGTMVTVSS VL: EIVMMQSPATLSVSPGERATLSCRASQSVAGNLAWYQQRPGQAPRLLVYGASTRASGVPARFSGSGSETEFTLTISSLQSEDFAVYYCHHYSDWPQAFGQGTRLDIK
2. MPK191 (antibody, V domains shown) VH: EVQLVQSGAEVKKPGESLKISCKGSGYSFINYWIGWVRQMPGKGLEWMGIIYPFDSDTKYSPSFQGHVTISADKSINTAYVQWSGLKASDTAMYYCARFTFGIAVVAGDVTGEGHAFDVWGQGTMVTVSS VL: EIVMTQSPATLSVSPGDRATLSCRASQSVAGNLAWYQQRPGQTPRLLIYGASTRASGVPARFSGSGSETEFTLTISSLQSEDFAVYYCQQYDNWPHAFGQGTRLDIK
3. MPK170 (antibody, V domains shown) VH: QVQLVQSGAEVKKPGESLKISCKGSGYSFINYWIGWVRQMPGKGLEWMGIIYPFDSDTKYSPSFQGHVTISADKSINTAYVQWSSLKASDTAIYYCARFTFGIAVSTDDVSGEGQAFDLWGQGTRVTVSS VL: EIVMMQSPATLSVSPGERATLSCRASQSVAGNLAWYQQRPGQAPRLLIYAGSARATGVPARFSGSGSETEFTLTISSLQSEDFAVYYCHHYSNWPQAFGQGTRLDIK
4. MPK168 (antibody, V domains shown) VH: EVQLVQSGAEVKKPGESLKISCQVSGYSFVNYWIGWVRQVPGKGLEWMGLIYPFDSDTQYSPSFQGHVTISADTSITTAYLQWSSLQASDTATYYCARFTFGLALVTAGLTDDGQAFDFWGQGTVVTVSS VL: EIVMMQSPATLSVSPGERATLSCRATESVAGKLAWYQQRPGQTPRLLIYGASARATGVPARFSGSGSETEFTLTISSLQSEDFAVYYCQQYSTWPHAFGQGTRLDIK

OUTPUT:
1: 2.4; 2: 1.2; 3: 1.1; 4: 1.3

These entries and their values trace back to patent US20260028391A1.
